I'd be grateful if you could share measured MIC for these entries.
Tested on: Escherichia coli SOL 90
Test: MIC, in vitro dilution method, Escherichia coli SOL 90 (Table III)
Type: cell-based
Conditions: SOL90; Escherichia coli SOL 90; dilution method; read-out: MIC
Express the result in µg/mL but write the number alone.

Enquiry: Quick check: MIC of C[C@@H](N)C(=O)OCC1=C(C(=O)O)N2C(=O)C(NC(=O)/C(=N\OC(C)(C)C(=O)O)c3csc(N)n3)C2[S+]([O-])C1 (stereo partly drawn) [41 891] ?
Return: 0.5

Enquiry: Quick check: MIC of Cc1cc(NC(=O)CN)c(C)c(C(=O)OCC2=C(C(=O)O)N3C(=O)C(NC(=O)C(=NOC(C)(C)C(=O)O)c4csc(N)n4)C3[S+]([O-])C2)c1 (stereo not drawn) [42 814] ?
Return: 0.5

Enquiry: Quick check: MIC of CC(C)(ON=C(C(=O)NC1C(=O)N2C(C(=O)O)=C(CSC(=O)C3CCC(CN)CC3)C[S+]([O-])C12)c1csc(N)n1)C(=O)O (stereo not drawn) [compound 42118] ?
Return: 1

Enquiry: Quick check: MIC of Cc1c(CN)cccc1C(=O)SCC1=C(C(=O)O)N2C(=O)C(NC(=O)C(=NOC(C)(C)C(=O)O)c3csc(N)n3)C2[S+]([O-])C1 (stereo not drawn) [compound 42535] ?
Return: 0.5

Enquiry: Quick check: MIC of NCC(=O)Nc1nc(C(=O)OCC2=C(C(=O)O)N3C(=O)C(NC(=O)C(=NOC4(C(=O)O)CCC4)c4csc(N)n4)C3[S+]([O-])C2)cs1 (stereo not drawn) [42 547] ?
Return: 0.5

Enquiry: Quick check: MIC of Cc1c(CN)cccc1C(=O)OCC1=C(C(=O)O)N2C(=O)C(NC(=O)/C(=N\OC(C)(C)C(=O)O)c3csc(N)n3)C2[S+]([O-])C1 (stereo not drawn) [42 456] ?
Return: 0.25

Enquiry: Quick check: MIC of CC(C)(O/N=C(\C(=O)NC1C(=O)N2C(C(=O)O)=C(COC(=O)C3(N)CCCC3)C[S+]([O-])C12)c1csc(N)n1)C(=O)O (stereo not drawn) [41 975] ?
Return: 0.25

Enquiry: Quick check: MIC of Cc1c(NC(=O)CCN)cccc1C(=O)OCC1=C(C(=O)O)N2C(=O)C(NC(=O)C(=NOC(C)(C)C(=O)O)c3csc(N)n3)C2[S+]([O-])C1 (stereo not drawn) [42 586] ?
Return: 0.25

Enquiry: Quick check: MIC of CC(C)(ON=C(C(=O)NC1C(=O)N2C(C(=O)O)=C(COC(=O)c3ccc(NC(=O)CCCN)cc3)C[S+]([O-])C12)c1csc(N)n1)C(=O)O (stereo not drawn) [42 688] ?
Return: 0.125

Enquiry: Quick check: MIC of CC(C)(ON=C(C(=O)NC1C(=O)N2C(C(=O)O)=C(COC(=O)CC(N)c3ccccc3)C[S+]([O-])C12)c1csc(N)n1)C(=O)O (stereo not drawn) [42 026] ?
Return: 0.5

Enquiry: Quick check: MIC of CC(C)(O/N=C(\C(=O)NC1C(=O)N2C(C(=O)O)=C(COC(=O)c3ccc(NC(=O)CN)cc3)C[S+]([O-])C12)c1csc(N)n1)C(=O)O (stereo not drawn) [42 467] ?
Return: 0.25

Enquiry: Quick check: MIC of Cc1ccc(C(=O)OCC2=C(C(=O)O)N3C(=O)C(NC(=O)/C(=N\OC(C)(C)C(=O)O)c4csc(N)n4)C3[S+]([O-])C2)cc1CN (stereo not drawn) [42 379] ?
Return: 0.25

Enquiry: Quick check: MIC of CC(C)(O/N=C(\C(=O)NC1C(=O)N2C(C(=O)O)=C(COC(=O)C3(N)CCCCC3)C[S+]([O-])C12)c1csc(N)n1)C(=O)O (stereo not drawn) [41 976] ?
Return: 1

Enquiry: Quick check: MIC of NCC(=O)Nc1ccc(C(=O)SCC2=C(C(=O)O)N3C(=O)C(NC(=O)C(=NOC4(C(=O)O)CCC4)c4csc(N)n4)C3[S+]([O-])C2)cc1 (stereo not drawn) [compound 42665] ?
Return: 0.5

Enquiry: Quick check: MIC of CC(O)C(N)C(=O)OCC1=C(C(=O)O)N2C(=O)C(NC(=O)C(=NOC(C)(C)C(=O)O)c3csc(N)n3)C2[S+]([O-])C1 (stereo not drawn) [41 885] ?
Return: 1

Enquiry: Quick check: MIC of CCC(C)C(N)C(=O)OCC1=C(C(=O)O)N2C(=O)C(NC(=O)C(=NOC(C)(C)C(=O)O)c3csc(N)n3)C2[S+]([O-])C1 (stereo not drawn) [41 860] ?
Return: 2

* * *

System: Enterobacter RO 154
Experiment: MIC, in vitro dilution method, Enterobacter RO 154 (Table III)
Assay type: cell-based
Conditions: RO154; Enterobacter RO 154; dilution method; read-out: MIC
measuredProperty: MIC (µg/mL)
Express the result in µg/mL but write the number alone.

Enquiry: Quick check: MIC of Cc1cc(CN)ccc1C(=O)OCC1=C(C(=O)O)N2C(=O)C(NC(=O)C(=NOC3(C(=O)O)CCC3)c3csc(N)n3)C2[S+]([O-])C1 (stereo not drawn) [42 849] ?
Return: 2

Enquiry: Quick check: MIC of CC(N)C(=O)Nc1nc(C(=O)OCC2=C(C(=O)O)N3C(=O)C(NC(=O)C(=NOC(C)(C)C(=O)O)c4csc(N)n4)C3[S+]([O-])C2)cs1 (stereo not drawn) [42 857] ?
Return: 8

Enquiry: Quick check: MIC of CC(C)(O/N=C(\C(=O)NC1C(=O)N2C(C(=O)O)=C(COC(=O)C3(N)CCCC3)C[S+]([O-])C12)c1csc(N)n1)C(=O)O (stereo not drawn) [41 975] ?
Return: 8

* * *

System: Klebsiella RO 30
Assay: septicemic model of the mouse, Klebsiella RO 30 (Table V)
Format: in vivo
Details: RO30, sc, 96 h, mouse septicemia, sub-cutaneous, 4 days observation, read-out: DE50 (the source's name)
measuredProperty: ED50 (mg/kg)
Express the result in mg/kg but write the number alone.

Enquiry: Entry CC(C)(O/N=C(\C(=O)NC1C(=O)N2C(C(=O)O)=C(COC(=O)CCN)C[S+]([O-])C12)c1csc(N)n1)C(=O)O (centres unmarked) , system Klebsiella RO 30: what ED50 was measured?
Return: 0.79

Enquiry: Entry CC(C)(O/N=C(\C(=O)NC1C(=O)N2C(C(=O)O)=C(COC(=O)C3CCNCC3)C[S+]([O-])C12)c1csc(N)n1)C(=O)O (centres unmarked) , system Klebsiella RO 30: what ED50 was measured?
Return: 0.1

Enquiry: Entry CC(C)(ON=C(C(=O)NC1C(=O)N2C(C(=O)O)=C(CSC(=O)C3CCNCC3)C[S+]([O-])C12)c1csc(N)n1)C(=O)O (centres unmarked) , system Klebsiella RO 30: what ED50 was measured?
Return: 0.4

Enquiry: Entry CC(C)(O/N=C(\C(=O)NC1C(=O)N2C(C(=O)O)=C(COC(=O)CCCN)C[S+]([O-])C12)c1csc(N)n1)C(=O)O (centres unmarked) , system Klebsiella RO 30: what ED50 was measured?
Return: 0.19

Enquiry: Entry CC(C)(O/N=C(\C(=O)NC1C(=O)N2C(C(=O)O)=C(COC(=O)CCCCCN)C[S+]([O-])C12)c1csc(N)n1)C(=O)O (centres unmarked) , system Klebsiella RO 30: what ED50 was measured?
Return: 0.17

* * *

I'd be grateful if you could share measured MIC for these entries.
System: Enterobacter RO 154
Assay: MIC, in vitro dilution method, Enterobacter RO 154 (Table III)
Type: cell-based
Settings: RO154; Enterobacter RO 154; dilution method; read-out: MIC
Text: The products of the invention have been studied as regards their pharmacological properties and, more especially, bacteriostatic action. This has been determined in vitro by the dilution method, and the study was on Gram negative strains. Results, expressed in minimum inhibiting concentrations (MIC-- μg/ml), are collected in the following table (Table III).
Express the result in µg/mL but write the number alone.

Enquiry: Quick check: MIC of CC(N)C(=O)Nc1ccc(C(=O)OCC2=C(C(=O)O)N3C(=O)C(NC(=O)C(=NOC4(C(=O)O)CCC4)c4csc(N)n4)C3[S+]([O-])C2)cc1 (stereo not drawn) ?
Return: 4

Enquiry: Quick check: MIC of CC(C)(ON=C(C(=O)NC1C(=O)N2C(C(=O)O)=C(CSC(=O)c3cccc(CN)c3)C[S+]([O-])C12)c1csc(N)n1)C(=O)O (stereo not drawn) ?
Return: 0.5

Enquiry: Quick check: MIC of C[C@H](N)C(=O)OCC1=C(C(=O)O)N2C(=O)C(NC(=O)/C(=N\OC(C)(C)C(=O)O)c3csc(N)n3)C2[S+]([O-])C1 (stereo partly drawn) ?
Return: 1

Enquiry: Quick check: MIC of CC(C)(O/N=C(\C(=O)NC1C(=O)N2C(C(=O)O)=C(COC(=O)CCN)C[S+]([O-])C12)c1csc(N)n1)C(=O)O (stereo not drawn) ?
Return: 0.25

Enquiry: Quick check: MIC of CNCc1ccc(C(=O)SCC2=C(C(=O)O)N3C(=O)C(NC(=O)C(=NOC(C)(C)C(=O)O)c4csc(N)n4)C3[S+]([O-])C2)cc1 (stereo not drawn) ?
Return: 0.5

Enquiry: Quick check: MIC of Cc1cc(NC(=O)CN)c(C)c(C(=O)OCC2=C(C(=O)O)N3C(=O)C(NC(=O)C(=NOC(C)(C)C(=O)O)c4csc(N)n4)C3[S+]([O-])C2)c1 (stereo not drawn) ?
Return: 8

Enquiry: Quick check: MIC of Cc1cc(CN)ccc1C(=O)OCC1=C(C(=O)O)N2C(=O)C(NC(=O)C(=NOC(C)(C)C(=O)O)c3csc(N)n3)C2[S+]([O-])C1 (stereo not drawn) ?
Return: 2

Enquiry: Quick check: MIC of CC(C)(ON=C(C(=O)NC1C(=O)N2C(C(=O)O)=C(COC(=O)c3ccc(CN)c(F)c3)C[S+]([O-])C12)c1csc(N)n1)C(=O)O (stereo not drawn) ?
Return: 2

Enquiry: Quick check: MIC of CNCC(=O)Nc1cccc(C(=O)OCC2=C(C(=O)O)N3C(=O)C(NC(=O)C(=NOC(C)(C)C(=O)O)c4csc(N)n4)C3[S+]([O-])C2)c1 (stereo not drawn) ?
Return: 4
